# assayed.target: T1, SNTG1, Q9NSN8
# T1 sequence (Q9NSN8 52-150, limits assumed, looked up): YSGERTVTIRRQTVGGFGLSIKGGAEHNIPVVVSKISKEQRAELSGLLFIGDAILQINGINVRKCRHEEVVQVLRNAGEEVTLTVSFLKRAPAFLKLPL
# assay.name: holdup assay
# Design: key: below the threshold = too weak to quantify, mostly under pKd 3.1 to 4
# particulars: plain residues with an end cap or a label only (N-terminal biotin on a linker: ado-ado)
property.label: pKd

1. GTGYDRKDYV [CLDN3, O15551] :: below the threshold
2. LPAVCYDIDI [PTTG2, Q9NZH5] :: 3.64
3. NTANRRTTPV [CACNG2, Q9Y698] :: below the threshold
4. PPGKHLVTEV [KCNA7, Q96RP8] :: 4.35
5. QSYPSKHDYV [CLDN18, P56856] :: below the threshold
6. EIPAQSPTCV [FZD10, Q9ULW2] :: 3.83
